- Tested on: Mycobacterium tuberculosis
- Measurement Protocol: Antimycobacterial activity against rifampin,isoniazid-resistant Mycobacterium tuberculosis expressing rpoB/katG mutant after 10 days by microbroth dilution method
- Format: functional
Kindly supply the reported MIC values for the records listed here.
Give bare numbers, in µM.

Input Smiles | Numeric Value
c1ccc(-c2ccc(-c3ncncc3-c3cccs3)s2)cc1 | 39.01

Batch: MIC for all items listed.
1. c1ccc2sc(-c3cncnc3)cc2c1
2. c1csc(-c2ccc(-c3ncncc3-c3cccs3)s2)c1
3. c1ccc(-c2ccc(-c3ncncc3-c3csc4ccccc34)s2)cc1
4. c1csc(-c2ncncc2-c2ccsc2)c1

[58.89, 2.14, 0.4, 25.58]

Batch: MIC for all items listed.
1. c1csc(-c2ccc(-c3ncncc3-c3csc4ccccc34)s2)c1
2. c1csc(-c2ccc(-c3ncncc3-c3ccsc3)s2)c1

0.98
19.14

Batch: MIC for all items listed.
1. c1ncc(-c2ccsc2)cn1
2. c1csc(-c2ccc(-c3ccncn3)s2)c1
3. Brc1ccc(-c2cncnc2)s1
4. c1ccc(-c2ccc(-c3ncncc3-c3cc4ccccc4s3)s2)cc1
5. Brc1ccc(-c2ncncc2Br)s1

1: 77.06; 2: 51.16; 3: 51.84; 4: 8.37; 5: 9.69

---

- Test system: Mycobacterium tuberculosis
- Measurement Protocol: Antimycobacterial activity against rifampin,isoniazid-resistant Mycobacterium tuberculosis expressing rpoB/katG mutant after 10 days by microbroth dilution method
- Type: functional
Binning of MIC into classes: low end = under 20 µM, middle = from 20 µM up to 30 µM, high end = 30 µM and over

Example entries and their recorded answers appear below.
Input Smiles | System Under Test | Label
Brc1ccc(-c2ncncc2-c2cccs2)s1 | Mycobacterium tuberculosis | high end
c1csc(-c2ccc(-c3ncncc3-c3cc4ccccc4s3)s2)c1 | Mycobacterium tuberculosis | high end
c1ccc(-c2ccc(-c3cncnc3)s2)cc1 | Mycobacterium tuberculosis | middle

Please let me know in which category the item c1csc(-c2ccc(-c3cncnc3)s2)c1 belongs.
middle

Please let me know in which category the item c1csc(-c2cncnc2-c2cccs2)c1 belongs.
low end

Please let me know in which category the item Brc1cncnc1 belongs.
high end

---

- System: Mycobacterium tuberculosis
- Measurement Protocol: Antimycobacterial activity against rifampin,isoniazid-resistant Mycobacterium tuberculosis expressing rpoB/katG mutant after 10 days by microbroth dilution method
- Format: functional
Kindly supply the reported MIC values for the records listed here.
Give bare numbers, in µM.

# annotated cases, reported MIC shown
Input Smiles | MIC [µM]
c1ccc(-c2ccc(-c3ncncc3-c3ccsc3)s2)cc1 | 19.5
Brc1ccc(-c2ncncc2-c2ccsc2)s1 | 19.34
c1csc(-c2ncncc2-c2csc3ccccc23)c1 | 42.46
Brc1ccc(-c2ncncc2-c2csc3ccccc23)s1 | 8.3
c1csc(-c2ncncc2-c2cc3ccccc3s2)c1 | 21.23
c1ccc2c(-c3cncnc3)csc2c1 | 7.07

Batch: MIC for all items listed.
1. c1csc(-c2cncnc2)c1
2. Brc1ccc(-c2ncncc2-c2cc3ccccc3s2)s1

1: 38.53; 2: 33.49
